B1: SAM and SH3 domain-containing protein 1, residues 630 to 700; numbered along this chain, O94885 (parent)
chain: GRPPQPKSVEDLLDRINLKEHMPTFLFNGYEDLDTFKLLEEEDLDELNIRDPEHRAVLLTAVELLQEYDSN

# Variants of: B1
# protocol details: abundance fitness (aPCA) (normalised: wild type 0, dead -1); higher = more abundant; growth selection in yeast, the domain comes from the species named
# experimental parameters: Homo sapiens
observed property: abundance fitness

monomer_sequence=GRPPQPKSVEDLLDRINLKEHMPTFLFNGYEDLDTFKLLEEEDLDELNIRDPEHRAVLYTAVELLQEYDSN reported_result=-0.823
monomer_sequence=GRPPQPKSVEDLLDRINLKEHMPTFLFNGYEDLDTFKLLEEEDLDELNIRDPEHRAVLLRAVELLQEYDSN reported_result=0.237
monomer_sequence=GRPPQPKSVEDLLDRINLKEHMPTFLFNGYEDLDTFKLLEEEDLDEPNIRDPEHRAVLLTAVELLQEYDSN reported_result=-0.799
monomer_sequence=GRPPQPKSVEDLLDRINLKEHMPTFLFNGYEDLDTFKLLEEEDLDELNIRDPEHRAVLLTAPELLQEYDSN reported_result=-0.517
monomer_sequence=GRPPQPKSVEDLLDRINLKEHMPTFLFNGYEDLDTFKLLEEECLDELNIRDPEHRAVLLTAVELLQEYDSN reported_result=-0.713
monomer_sequence=GRPPQPKSVEDLLDRINLKEHMSTFLFNGYEDLDTFKLLEEEDLDELNIRDPEHRAVLLTAVELLQEYDSN reported_result=0.038
monomer_sequence=GRPPQPKSVEDLLDRINLKEHMPTFLFNGYEDLDTFKLLEEEDLDELNIRDPEHRAVLLTAVELLQEYFSN reported_result=-0.811
monomer_sequence=GRPPQPKSVEDLLDRINLKEHMPTFLFNGYEDLDTFKLLEEEDLDELNIKDPEHRAVLLTAVELLQEYDSN reported_result=0.032
monomer_sequence=GRPPQPKSVEDLLDRINLKEHMPTYLFNGYEDLDTFKLLEEEDLDELNIRDPEHRAVLLTAVELLQEYDSN reported_result=-0.893
monomer_sequence=GRPPQPKSVEDLLDPINLKEHMPTFLFNGYEDLDTFKLLEEEDLDELNIRDPEHRAVLLTAVELLQEYDSN reported_result=-0.828
monomer_sequence=GRPPQPKSVEDLLDRINLKEHMPTFLFNGYEDLDTFKLLEEEDLDELNIRDPEHDAVLLTAVELLQEYDSN reported_result=-0.77
monomer_sequence=MRPPQPKSVEDLLDRINLKEHMPTFLFNGYEDLDTFKLLEEEDLDELNIRDPEHRAVLLTAVELLQEYDSN reported_result=0.013
monomer_sequence=GRPPQPKSVEDLLDYINLKEHMPTFLFNGYEDLDTFKLLEEEDLDELNIRDPEHRAVLLTAVELLQEYDSN reported_result=-0.3
monomer_sequence=GRPPQPKSVEDLLDRINLKEHMPTFLFNGYEDLDTFKLLEEEDLGELNIRDPEHRAVLLTAVELLQEYDSN reported_result=-0.812
monomer_sequence=GRPPQPKCVEDLLDRINLKEHMPTFLFNGYEDLDTFKLLEEEDLDELNIRDPEHRAVLLTAVELLQEYDSN reported_result=-0.701
monomer_sequence=GRPPQPKSVEDLLDRINLKEHMPTFLFNGYENLDTFKLLEEEDLDELNIRDPEHRAVLLTAVELLQEYDSN reported_result=-0.085
monomer_sequence=GRPPQPKSVEDLLDRINLKEHMPTFLFNGYEDLDTFKLLEEEDLDELNIRDPEHRAVLLTAVELLQEYSSN reported_result=-0.296
monomer_sequence=GRPPQPKSVEDLLDRINLKEHMPTFLFNGYEDLDTSKLLEEEDLDELNIRDPEHRAVLLTAVELLQEYDSN reported_result=-0.749
monomer_sequence=GRPPQPKSVEDLLDRINLKEHMPTFLFNGMEDLDTFKLLEEEDLDELNIRDPEHRAVLLTAVELLQEYDSN reported_result=-0.568
monomer_sequence=GRPPQPKWVEDLLDRINLKEHMPTFLFNGYEDLDTFKLLEEEDLDELNIRDPEHRAVLLTAVELLQEYDSN reported_result=-1.35
monomer_sequence=GRPPQPKSVEDLLDRINLKEHMPTFLFNGYEDLDTFKLLEEEDLDELNIRQPEHRAVLLTAVELLQEYDSN reported_result=-0.307
monomer_sequence=GRPPQPKSVEDLLDRINLKERMPTFLFNGYEDLDTFKLLEEEDLDELNIRDPEHRAVLLTAVELLQEYDSN reported_result=-0.921
monomer_sequence=GRPPQPKSVEDLLDRINLKEHMPTFLFNGYEDLDTFKLLEEEDLDELNIRDNEHRAVLLTAVELLQEYDSN reported_result=-0.569
monomer_sequence=GRPPQPKSVEDLLDRINLKEHMPTFLFNWYEDLDTFKLLEEEDLDELNIRDPEHRAVLLTAVELLQEYDSN reported_result=-0.937
monomer_sequence=GRPPQPKSVEDLVDRINLKEHMPTFLFNGYEDLDTFKLLEEEDLDELNIRDPEHRAVLLTAVELLQEYDSN reported_result=-1
monomer_sequence=GRPPQPKSVEDLLDRINLKEHMPTFLFNEYEDLDTFKLLEEEDLDELNIRDPEHRAVLLTAVELLQEYDSN reported_result=-0.844
monomer_sequence=GRPPQPKSVEDLLDRINLKEHMPTFLFNGYEDLDTFKLLEEEDLDELNIRDPEHRAVLLTAVELLQEYMSN reported_result=-0.822
monomer_sequence=GRPPQPKSVEDLLDRINLKEHMPTFLFNGYEDLDTFKLLDEEDLDELNIRDPEHRAVLLTAVELLQEYDSN reported_result=0.011
monomer_sequence=GRPPQPKSVEDLLDRINLKEHMPTFLVNGYEDLDTFKLLEEEDLDELNIRDPEHRAVLLTAVELLQEYDSN reported_result=0.235
monomer_sequence=GRPPQPKSVEDLLDRINLKEHMPTFLFNGYEDLDTFKLLEEEDLDELNIRDPEHRAVLLTAVELLQEYDSH reported_result=0.056
monomer_sequence=GRPPQPKSVEDLLDRINLKEHMPTFLFNGYEDLDTFKLLEEEDLDELNIRDPEHRAVLLTAVELLCEYDSN reported_result=-0.448
monomer_sequence=GRPPQPKSVEDLLDRINLKEHMPTFLFNGYEDLDTFKLLEEEDLDELNIRNPEHRAVLLTAVELLQEYDSN reported_result=-0.159
